- Target or test system: Thymidylate synthase (Mus musculus, UniProt P07607)
- Sequence (P07607 whole entry): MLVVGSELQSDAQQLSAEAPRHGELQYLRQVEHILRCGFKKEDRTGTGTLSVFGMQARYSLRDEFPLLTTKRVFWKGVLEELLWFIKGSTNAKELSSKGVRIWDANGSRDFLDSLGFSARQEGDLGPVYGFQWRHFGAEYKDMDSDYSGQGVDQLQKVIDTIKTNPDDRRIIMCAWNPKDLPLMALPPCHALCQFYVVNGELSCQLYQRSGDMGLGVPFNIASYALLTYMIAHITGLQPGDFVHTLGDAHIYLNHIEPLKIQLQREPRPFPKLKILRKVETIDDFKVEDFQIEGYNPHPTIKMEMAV
pKi: −log10 of the molar value.
Tag: MET if measured pKi is not below 9, NOT MET if it is.

In [3]: df
Out[3]:
                                   molecule                     target_or_test_system  classification
0  C#CCN(c1ccc(C(=O)N[C@@H](CCC(=O)N[C@H](CCC(=O)O)c2nnn[nH]2)C(=O)O)cc1)[C@@H]1CCc2cc3nc(C)[nH]c(=O)c3cc21  Thymidylate synthase (Mus musculus, UniProt P07607)         NOT MET
1  C#CCN(c1ccc(C(=O)N[C@@H](CCC(=O)N[C@H](CCC(=O)O)C(=O)O)C(=O)O)cc1)[C@@H]1CCc2cc3nc(C)[nH]c(=O)c3cc21  Thymidylate synthase (Mus musculus, UniProt P07607)         NOT MET
2  C#CCN(c1ccc(C(=O)N[C@@H](CCC(=O)NC(CCC(=O)O)c2nnn[nH]2)C(=O)O)cc1)C1CCc2cc3nc(C)nc(O)c3cc21 (stereo not given in full)  Thymidylate synthase (Mus musculus, UniProt P07607)             MET
3  C#CCN(c1ccc(C(=O)N[C@@H](CCC(=O)NC(CCC(=O)O)C(=O)O)C(=O)O)cc1)C1CCc2cc3nc(C)nc(O)c3cc21 (stereo not given in full)  Thymidylate synthase (Mus musculus, UniProt P07607)             MET
